c (interaction parameter table, constant) values, listed per item
Test: Solvation interaction parameters by inverse gas-liquid chromatography (Abraham solvation model)
Assay type: physicochemical
Conditions: 70° C.

Here is how some compounds turned out for c (interaction parameter table, constant).
C[n+]1ccn(CCCCn2cc[n+](C)c2)c1.O=S(=O)([N-]S(=O)(=O)C(F)(F)F)C(F)(F)F.O=S(=O)([N-]S(=O)(=O)C(F)(F)F)C(F)(F)F : −2.91
CCCCCCCCC[n+]1ccn(C)c1.O=S(=O)([N-]S(=O)(=O)C(F)(F)F)C(F)(F)F : −3.05
O=S(=O)([N-]S(=O)(=O)C(F)(F)F)C(F)(F)F.O=S(=O)([N-]S(=O)(=O)C(F)(F)F)C(F)(F)F.c1ccc(Cn2cc[n+](CCCCCCCCCCCC[n+]3ccn(Cc4ccccc4)c3)c2)cc1 : −3.07

Measured c (interaction parameter table, constant), Cn1cc[n+](CCCCCCCCC[n+]2ccn(C)c2)c1.O=S(=O)([N-]S(=O)(=O)C(F)(F)F)C(F)(F)F.O=S(=O)([N-]S(=O)(=O)C(F)(F)F)C(F)(F)F : −2.95

Measured c (interaction parameter table, constant), C[N+]1(CCCCCCCCC[N+]2(C)CCCC2)CCCC1.O=S(=O)([N-]S(=O)(=O)C(F)(F)F)C(F)(F)F.O=S(=O)([N-]S(=O)(=O)C(F)(F)F)C(F)(F)F : −2.85
